# assay-comment: Selectivity for human melanocortin 3 receptor over melanocortin 5 receptor expressed in CHO cells; control 6 nM
# Assay type: cell-based
Please provide measured Selectivity for the entries that follow.
Format: numeric value only, no unit, no commentary.

-- ask Endpoint output: Selectivity of CC(C)C1CNC[C@@H](C(=O)N[C@H](Cc2ccc(F)cc2)C(=O)N2CCC(C(=O)NC(C)(C)C)(C3CCCCC3)CC2)N1 (some centres not stated) . Value?
-- reply 105

-- ask Could you do the same for `CC(C)(C)NC(=O)C1(C2CCCCC2)CCN(C(=O)[C@@H](Cc2ccc(F)cc2)NC(=O)[C@@H]2CN[C@H](C3CC3)CN2)CC1.CC(F)(F)C(=O)O` , please?
-- reply 65

-- ask Could you do the same for `CC(C)[C@H]1CN[C@H](C(=O)N[C@H](Cc2ccc(F)cc2)C(=O)N2CCC(C(=O)NC(C)(C)C)(C3CCCCC3)CC2)CN1` , please?
-- reply 116

-- ask Could you do the same for `CC(C)(C)NC(=O)C1(C2CCCCC2)CCN(C(=O)[C@@H](Cc2ccc(F)cc2)NC(=O)[C@@H]2CN[C@@H](C(C)(C)C)CN2)CC1` , please?
-- reply 39

-- ask Could you do the same for `CC(C)(C)NC(=O)C1(C2CCCCC2)CCN(C(=O)[C@@H](Cc2ccc(F)cc2)NC(=O)[C@@H]2CN[C@@H](C3(C)CC3)CN2)CC1` , please?
-- reply 40

-- ask Could you do the same for `CC[C@@H]1CN[C@H](C(=O)N[C@H](Cc2ccc(F)cc2)C(=O)N2CCC(C(=O)NC(C)(C)C)(C3CCCCC3)CC2)CN1` , please?
-- reply 75

-- ask Could you do the same for `C[C@H]1CN[C@H](C(=O)N[C@H](Cc2ccc(F)cc2)C(=O)N2CCC(C(=O)NC(C)(C)C)(C3CCCCC3)CC2)CN1` , please?
-- reply 87

* * *

# assayed-target: Melanocortin receptor 4 (Homo sapiens, UniProt P32245)
# Sequence (P32245 whole entry): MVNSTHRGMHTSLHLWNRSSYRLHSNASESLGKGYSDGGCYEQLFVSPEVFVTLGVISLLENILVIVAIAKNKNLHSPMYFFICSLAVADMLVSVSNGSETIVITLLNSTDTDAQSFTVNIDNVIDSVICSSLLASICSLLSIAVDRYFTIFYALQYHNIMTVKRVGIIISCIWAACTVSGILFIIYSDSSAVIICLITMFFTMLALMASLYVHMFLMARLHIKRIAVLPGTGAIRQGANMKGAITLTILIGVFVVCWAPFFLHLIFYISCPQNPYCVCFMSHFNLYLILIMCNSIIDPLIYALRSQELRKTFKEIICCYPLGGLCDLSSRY
# assay-comment: Concentration of compound at 50% maximum cAMP accumulation mediated by human melanocortin 4 receptor
measured-property: pEC50
Would you please state pEC50, meaning minus log10 of the concentration in mol/L, as a bare number?

-- ask Endpoint output: pEC50 of `CC(C)(C)NC(=O)C1(C2CCCCC2)CCN(C(=O)[C@@H](Cc2ccc(F)cc2)NC(=O)[C@@H]2CN[C@H](C(C)(C)C)CN2)CC1` . Value?
-- reply 7.04

-- ask Could you do the same for `CC(C)(C)NC(=O)C1(C2CCCCC2)CCN(C(=O)[C@@H](Cc2ccc(F)cc2)NC(=O)[C@@H]2CN[C@H](C3(C)CC3)CN2)CC1` , please?
-- reply 7.03

-- ask Could you do the same for `C[C@H]1CN[C@H](C(=O)N[C@H](Cc2ccc(F)cc2)C(=O)N2CCC(C(=O)NC(C)(C)C)(C3CCCCC3)CC2)CN1` , please?
-- reply 8.10

-- ask Could you do the same for `CC(C)(C)NC(=O)C1(C2CCCCC2)CCN(C(=O)[C@@H](Cc2ccc(F)cc2)NC(=O)[C@@H]2CNC3(CC3)CN2)CC1` , please?
-- reply 7.39

-- ask Could you do the same for `CC[C@H]1CN[C@H](C(=O)N[C@H](Cc2ccc(F)cc2)C(=O)N2CCC(C(=O)NC(C)(C)C)(C3CCCCC3)CC2)CN1` , please?
-- reply 8.30

-- ask Could you do the same for `CC[C@@H]1CN[C@H](C(=O)N[C@H](Cc2ccc(F)cc2)C(=O)N2CCC(C(=O)NC(C)(C)C)(C3CCCCC3)CC2)CN1` , please?
-- reply 6.82

-- ask Could you do the same for `CC(C)[C@H]1CN[C@H](C(=O)N[C@H](Cc2ccc(F)cc2)C(=O)N2CCC(C(=O)NC(C)(C)C)(C3CCCCC3)CC2)CN1` , please?
-- reply 8.52

* * *

Please provide measured pEC50 for the entries that follow.
# assayed-target: UniProtKB P33032
# Sequence (P33032 whole entry): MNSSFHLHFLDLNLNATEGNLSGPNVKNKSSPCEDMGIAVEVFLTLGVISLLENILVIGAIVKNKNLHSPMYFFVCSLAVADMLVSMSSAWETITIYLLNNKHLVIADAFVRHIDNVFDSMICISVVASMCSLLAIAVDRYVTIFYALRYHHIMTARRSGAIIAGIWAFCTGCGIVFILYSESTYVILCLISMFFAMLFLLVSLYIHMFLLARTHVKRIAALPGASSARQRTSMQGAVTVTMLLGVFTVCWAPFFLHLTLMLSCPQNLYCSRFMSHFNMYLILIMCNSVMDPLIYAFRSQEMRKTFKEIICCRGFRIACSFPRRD
# assay-comment: Concentration of compound at 50% maximum cAMP accumulation mediated by human melanocortin 5 receptor
# Format: functional
Would you please state pEC50, meaning minus log10 of the concentration in mol/L, as a bare number?

-- ask Endpoint output: pEC50 of `CC(C)(C)NC(=O)C1(C2CCCCC2)CCN(C(=O)[C@@H](Cc2ccc(F)cc2)NC(=O)[C@@H]2CN[C@H](C(C)(C)C)CN2)CC1` . Value?
-- reply 6.00

-- ask Could you do the same for `C[C@H]1CN[C@H](C(=O)N[C@H](Cc2ccc(F)cc2)C(=O)N2CCC(C(=O)NC(C)(C)C)(C3CCCCC3)CC2)CN1` , please?
-- reply 6.06

-- ask Could you do the same for `CC(C)(C)NC(=O)C1(C2CCCCC2)CCN(C(=O)[C@@H](Cc2ccc(F)cc2)NC(=O)[C@@H]2CNC3(CC3)CN2)CC1` , please?
-- reply 5.72

-- ask Could you do the same for `CC(C)(C)NC(=O)C1(C2CCCCC2)CCN(C(=O)[C@@H](Cc2ccc(F)cc2)NC(=O)[C@@H]2CN[C@H](C3CC3)CN2)CC1.CC(F)(F)C(=O)O` , please?
-- reply 5.85

-- ask Could you do the same for `CC(C)(C)NC(=O)C1(C2CCCCC2)CCN(C(=O)[C@@H](Cc2ccc(F)cc2)NC(=O)[C@@H]2CN[C@H](C3(C)CC3)CN2)CC1` , please?
-- reply 6.04

-- ask Could you do the same for `CC[C@@H]1CN[C@H](C(=O)N[C@H](Cc2ccc(F)cc2)C(=O)N2CCC(C(=O)NC(C)(C)C)(C3CCCCC3)CC2)CN1C` , please?
-- reply 5.62

-- ask Could you do the same for `CC(C)[C@@H]1CN[C@H](C(=O)N[C@H](Cc2ccc(F)cc2)C(=O)N2CCC(C(=O)NC(C)(C)C)(C3CCCCC3)CC2)CN1` , please?
-- reply 5.85

-- ask Could you do the same for `CC(C)(C)NC(=O)C1(C2CCCCC2)CCN(C(=O)[C@@H](Cc2ccc(F)cc2)NC(=O)[C@@H]2CN[C@@H](C(C)(C)C)CN2)CC1` , please?
-- reply 6.44

-- ask Could you do the same for `CC(C)(C)NC(=O)C1(C2CCCCC2)CCN(C(=O)[C@@H](Cc2ccc(F)cc2)NC(=O)[C@@H]2CN[C@@H](C3(C)CC3)CN2)CC1` , please?
-- reply 6.52

-- ask Could you do the same for `CC(C)(C)NC(=O)C1(C2CCCCC2)CCN(C(=O)[C@@H](Cc2ccc(F)cc2)NC(=O)[C@@H]2CN[C@@H](C3CC3)CN2)CC1` , please?
-- reply 6.12

-- ask Could you do the same for `CC(C)[C@H]1CN[C@H](C(=O)N[C@H](Cc2ccc(F)cc2)C(=O)N2CCC(C(=O)NC(C)(C)C)(C3CCCCC3)CC2)CN1` , please?
-- reply 6.47

-- ask Could you do the same for `CC[C@H]1CN[C@H](C(=O)N[C@H](Cc2ccc(F)cc2)C(=O)N2CCC(C(=O)NC(C)(C)C)(C3CCCCC3)CC2)CN1C` , please?
-- reply 6.35

-- ask Could you do the same for `CC[C@H]1CN[C@H](C(=O)N[C@H](Cc2ccc(F)cc2)C(=O)N2CCC(C(=O)NC(C)(C)C)(C3CCCCC3)CC2)CN1` , please?
-- reply 6.15

* * *

# assayed-target: Melanocortin receptor 4 (Homo sapiens, UniProt P32245)
# assay-comment: Inhibitory concentration to displace [125I]NDP-alpha-MSH from human melanocortin 4 receptor expressed in CHO cells; Control 19 nM
# Assay type: cell-based
pIC50: −log10 of the molar value.
Assign 1 whenever pIC50 does not fall below 8; assign 0 whenever it does.

-- ask Can `CC[C@@H]1CN[C@H](C(=O)N[C@H](Cc2ccc(F)cc2)C(=O)N2CCC(C(=O)NC(C)(C)C)(C3CCCCC3)CC2)CN1C` be said to have pIC50 at or above 8?
-- reply 0

-- ask Could you do the same for `CC(C)[C@@H]1CN[C@H](C(=O)N[C@H](Cc2ccc(F)cc2)C(=O)N2CCC(C(=O)NC(C)(C)C)(C3CCCCC3)CC2)CN1` , please?
-- reply 0

-- ask Could you do the same for `CC[C@H]1CN[C@H](C(=O)N[C@H](Cc2ccc(F)cc2)C(=O)N2CCC(C(=O)NC(C)(C)C)(C3CCCCC3)CC2)CN1C` , please?
-- reply 1

-- ask Could you do the same for `CC(C)[C@H]1CN[C@H](C(=O)N[C@H](Cc2ccc(F)cc2)C(=O)N2CCC(C(=O)NC(C)(C)C)(C3CCCCC3)CC2)CN1` , please?
-- reply 1

-- ask Could you do the same for `CC(C)(C)NC(=O)C1(C2CCCCC2)CCN(C(=O)[C@@H](Cc2ccc(F)cc2)NC(=O)[C@@H]2CN[C@H](C3(C)CC3)CN2)CC1` , please?
-- reply 0

-- ask Could you do the same for `CC[C@@H]1CN[C@H](C(=O)N[C@H](Cc2ccc(F)cc2)C(=O)N2CCC(C(=O)NC(C)(C)C)(C3CCCCC3)CC2)CN1` , please?
-- reply 0

-- ask Could you do the same for `CC(C)(C)NC(=O)C1(C2CCCCC2)CCN(C(=O)[C@@H](Cc2ccc(F)cc2)NC(=O)[C@@H]2CN[C@@H](C3(C)CC3)CN2)CC1` , please?
-- reply 1

-- ask Could you do the same for `CC(C)(C)NC(=O)C1(C2CCCCC2)CCN(C(=O)[C@@H](Cc2ccc(F)cc2)NC(=O)[C@@H]2CN[C@@H](C(C)(C)C)CN2)CC1` , please?
-- reply 1
